Entry source: patent US20240182536A1

Target: T1, interleukin 18 binding protein (IL-18BP) (UniProt O95998 31-194); also: unit not given here
T1 sequence (looked up): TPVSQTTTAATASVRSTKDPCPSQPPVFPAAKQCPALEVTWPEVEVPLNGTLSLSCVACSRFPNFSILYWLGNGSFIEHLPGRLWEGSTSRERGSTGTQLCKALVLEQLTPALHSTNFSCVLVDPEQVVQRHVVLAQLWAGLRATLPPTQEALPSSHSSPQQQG
Test: cell-based or functional assay
Test readout: HEK-Blue activity, +100 nM BP, DF-1,000,000
Give bare numbers.

Binder | Numeric readout
IL-18 variant K53Y, S55Y, Q56H (ligand) YFGKLESKLSVIRNLNDQVLFIDQGNRPLFEDMTDSDMRDNAPRTIFIISMYYDYHPRGMAVTISVKSEKISTLSSENKIISFKEMNPPDNIKDTKSDIIFFQRSVPGHDNKMQFESSSYEGYFLASEKERDLFKLILKKEDELGDRSIMFTVQNED | 0.19
IL-18 variant T34S, S36L, D37E, D40Y, N41M, K53T, S55K, P107K, H109Q (ligand) YFGKLESKLSVIRNLNDQVLFIDQGNRPLFEDMSDLEMRYMAPRTIFIISMYTDKQPRGMAVTISVKSEKISTLSSENKIISFKEMNPPDNIKDTKSDIIFFQRSVKGQDNKMQFESSSYEGYFLASEKERDLFKLILKKEDELGDRSIMFTVQNED | 0.09

q: Give a short answer stating reported HEK-Blue activity, +100 nM BP, DF-1,000,000 for IL-18 variant K53Y, S55G, Q56H (ligand) YFGKLESKLSVIRNLNDQVLFIDQGNRPLFEDMTDSDMRDNAPRTIFIISMYYDGHPRGMAVTISVKSEKISTLSSENKIISFKEMNPPDNIKDTKSDIIFFQRSVPGHDNKMQFESSSYEGYFLASEKERDLFKLILKKEDELGDRSIMFTVQNED .
a: 0.18
